# SYSTEM: acetylcholine receptor
# EXPERIMENT_SUMMARY: SPR, AchR immobilized on chip
MEASURED_PROPERTY: Binding affinity (relative to RRGVRR) (value relative to the RRGVRR sequence)
Just the number.

Exercise: Would you mind telling me what Binding affinity (relative to RRGVRR) (value relative to the RRGVRR sequence) value was observed for RRGVRRW ?
Solution: 134

Exercise: Queued: CRRGVRR
Solution: 128

Exercise: Queued: TRRGVRR
Solution: 105

Exercise: Queued: MRRGVRR
Solution: 124

Exercise: Queued: RRGVRRM
Solution: 127

Reference for the values: patent US20250011363A1
